# assay details: folding stability dG unfold (combined trypsin and chymotrypsin); higher = more stable
assay readout: folding stability dG unfold (kcal/mol)
One number for each entry, in kcal/mol.

{"sequence input": "SAGGEVKVEIKYDKKKNKIEIKVIVRDKETGEWKELSAEEIAKLLKKKLKLPNVKEIKVEVYEPGEKPSAGG [r13_327_TrROS_Hall]", "folding stability dG unfold / kcal/mol": 1.97}

Below: the item to evaluate.
Name the recorded folding stability dG unfold for SAGDNYREVEYTLKLKNPKGERKLKVKVYYPKGGMFIKIEWPDNGRKIDIPFKSPEDAEETIKDLLDKLSAG [r5_480_TrROS] .
2.13

====

# assay details: folding stability dG unfold from chymotrypsin proteolysis; higher = more stable
assay readout: folding stability dG unfold (kcal/mol)
Numbers only, in kcal/mol.

Record excerpt, results attached:
{"sequence input": "SAGPPVEIPITIKIRYWKPDPDGPKPVEERTIPIPVRMPPDQLDDPAFNNFIKEALDELPPGIRMIEITSAG [r5_849_TrROS]", "folding stability dG unfold [kcal/mol]": 1.28}
{"sequence input": "SAGGMYLVKIKVKIDSPTSEKERDLYILAEPDTDVEEIVKKIPGAKNIEIEVEIIPPSENPEIASNPLSAGG [r19_339_JUSTAS]", "folding stability dG unfold [kcal/mol]": 0.7}
{"sequence input": "MRITLELEDGTRVEIEFERKEDGTLVVRIKVTRKDGKTVEIEVVVRSKDGKITPEELERALREALEELLKKS [r1_124_TrROS_Hall]", "folding stability dG unfold [kcal/mol]": 4.06}

# batch size: 7; output folding stability dG unfold per entry
1. SMKVEIEEEVEGDRITLTIKFDDEEEAEKAIKELAKELGIPMKVLSRESEKLPGGEYKLTITGEVPPDLKSA [r9_102_JUSTAS]
2. SAGEIKIEIKKNKNGKLTIRITVKKKDGEEKEIEIEVPENMTAEELAKELEKKGFEITEIKSIEELLKSAGG [r19_263_TrROS_Hall]
3. GPEVLVETFVDPETGRVVVRVYFPEPDRLVLAVGERGGDGVRVLVVEYEADPLEPRFAEFEFPALPEGFDES [r1_404_TrMRF]
4. SAGMKTLEKTGSAAKIEEAIAAGKSLEEVFETAGKDGGTSRTLTEPNRTLTFSGETSKPGVATLTTIPESAG [r5_343_JUSTAS]
5. SAGGSAGGSAGKIKIEKDKNGNYRVILKNGKVYEFKSIEEAKEELKKKFPNIKEIEIVKTSAGGSAGGSAGG [r11_806_TrROS_Hall]
6. SAGLIKIERTGDKLTITIPLKGAPPGAQVRIMVFTDGKVEEHWIPPGKEVEITIPPDNIHIFIQIYPPDSAG [r5_867_TrROS]
7. SAGGSAGGSETRVLVRPLDGAIVIEAYRRLPDGSWVLAERIVIPTKGDDPESIARAQEVIDKLSAGGSAGGS [r12_169_TrMRF]

1.1
3.83
2.59
0.279
4.29
3.15
4.67

Go through the list and state folding stability dG unfold for each entry.
1. SAGGSAGGLEEELKLAKENPGEFEGVTVKLESVIEVTTTDPTTGKPTTKLVRVESEITFPPGLKSAGGSAGG [r6_560_JUSTAS]
2. SAGGSAGGSAGGMIKIKLGDKWVDVAEVKEYPDSIIVYNPKTNTKITISKKNPEDPNILISAGGSAGGSAGG [r7_391_JUSTAS]

1. 1.05
2. 1.47

====

# assay details: folding stability dG unfold from trypsin proteolysis; higher = more stable
Is folding stability dG unfold at least 1 kcal/mol? Then Yes. If not, No.

{"sequence input": "SAGGSAGGSAGPVPKTITVTVSSPEEAEAAVKEIKPKYPNVKVERKKVGDKIVLTITVEESAGGSAGGSAGG [r17_319_JUSTAS]", "label": "Yes"}
{"sequence input": "SAGGEKTYMVRIDIEYRTPGKPREIDLMVPIKSPEQAREQLDKIADFLAKEHPDNWRIKVEIYPMEDSAGGS [r16_475_TrROS]", "label": "Yes"}
{"sequence input": "SAGGSAGGSAIMINIDLEYDPGDGTIELEYKISFMDPGGKPMGMITIRLEIRIPPPEPDPDDKSAGGSAGGS [r12_254_TrROS]", "label": "Yes"}
{"sequence input": "SAGGSAGGSGMKPAKVLKVEEFFDPKNNTSFKKVEAELPDRKITLELPPGEPVDENSTILVEESAGGSAGGS [r20_49_JUSTAS]", "label": "No"}
{"sequence input": "SAGGSAMDPSKLVRKKVRFRVVDPNGKPLGEIDIEVEFPGGVSEEEAEELLRELIAALAPPAGVEGSAGGSA [r15_310_TrMRF]", "label": "Yes"}
{"sequence input": "SAGGSAGGSAGGSKKTIKVRIKIEVDGKTYEITVELPEEGMSLEELLKKFPNAKITEIESAGGSAGGSAGGS [r4_278_TrROS_Hall]", "label": "Yes"}
{"sequence input": "SAGGSAGGSTIDITLPDLDEEEIREYLKELFPDVEVTIEYDPSTNTYTLKVGGDEVVVTRLPPNSAGGSAGG [r6_609_JUSTAS]", "label": "Yes"}
{"sequence input": "SAGGMKLKPVKEGEEIEIELEIVDKETKKVYKVKAKITVVKDKETKEYYVKIEIENPETGEKYTFLLKSAGG [r13_262_TrROS_Hall]", "label": "Yes"}
{"sequence input": "SAGGMSKEELAKKLAKELAEKLGIKEIKEIKIEKKKDKVKITIVFKENKKIIEIELKDGKIVKIKEKSAGGS [r16_171_TrROS_Hall]", "label": "Yes"}
{"sequence input": "SAGGSAGKPRPIDIWIPLPPGAEEVKIEQLDIFIPDGWRIRIEEIEIDPEDPGYIRVTVKIQPLDDSAGGSA [r15_852_TrROS]", "label": "Yes"}

Has SAGGSAGGSATTTTAPDGSPVTVYPETGVARVYDPATGLWTRLTTRPDGVVEETPLPPGAPLESAGGSAGGS [r12_997_JUSTAS] a recorded folding stability dG unfold greater than or equal to 1 kcal/mol?
No

====

For each of the sequences below, state its folding stability dG unfold.
# assay details: folding stability dG unfold from trypsin proteolysis; higher = more stable
Give bare numbers, in kcal/mol.

{"sequence input": "SMSEVVEESEFNGEKVITIKVTLPDGTPVTVTITLSPEGEGTVTTVPPSSSTSTTTTVPVSQVDEVLEALSA [r9_91_JUSTAS]", "folding stability dG unfold / kcal/mol": 1.95}
{"sequence input": "SAGGSAGGSAMIETTVSFDPSTGTVTTTTTYTDPNGGYTKSSTTVTPVPTPAPPPPAAPNRVSAGGSAGGSA [r18_361_JUSTAS]", "folding stability dG unfold / kcal/mol": 0.409}
{"sequence input": "SAGGSAGLEGVAKAILDKLPPNRKIAAFTVNEEEAKTATFTTPDGNEINITAAGDKIASIDIIDAESAGGSA [r15_175_TrMRF]", "folding stability dG unfold / kcal/mol": -1.09}
{"sequence input": "SAGGSAGGSPPPDIKVEVESYENPDGQRYYRVTITIDDGRPFDIWMPPGMSPSEAKNWLKDLLSAGGSAGGS [r12_1019_TrROS]", "folding stability dG unfold / kcal/mol": 3.35}
{"sequence input": "SAGGSAGGSAGSTTTTITDPANGEAYEVTSDPNGGATITNPNSSQVYYKNADTITSVGASSAGGSAGGSAGG [r17_476_JUSTAS]", "folding stability dG unfold / kcal/mol": -0.263}

# batch: return folding stability dG unfold for each of the 2 sequences below
1. SMKIPVKTNDPEALKELLNKIKEILEKAKEKGYEIFPIPIILDNGKEIIFPIDPNDKIEEVIKKIEEALKSA [r9_127_TrMRF]
2. SAGGSAGGSAGGGIKIKIISVKPLPDGSVLVKAKIIFPDGKEKEILILFNKNGEIKIFEKSAGGSAGGSAGG [r7_860_TrMRF]

2.7
3.04

====

# assay details: folding stability dG unfold from chymotrypsin proteolysis; higher = more stable
Classification field: fulfilled = folding stability dG unfold at or over 2 kcal/mol; not fulfilled = folding stability dG unfold under 2 kcal/mol.

These solved cases illustrate the format of a correct answer.
{"sequence input": "SAGGSAGGSAGGIYIPLEDLEKNGLGFEELVEKLGVDVEIEVLETEPGKPVAKIRPKLGSAGGSAGGSAGGS [r10_855_TrMRF]", "label": "not fulfilled"}
{"sequence input": "SAEVVIVIEPGMTEEQVRARLKAALEEALRKGKKVKKIVVKSEEAARRIRDLLKELGVPEEDVEVVLLPSAG [r14_589_TrROS_Hall]", "label": "fulfilled"}
{"sequence input": "SASSSMSSSSTSRTVPTPEGPVSITITFYPSTGKYTATITDPATSTATTVPSPGSSVEEAIAEAIALLASAG [r14_65_JUSTAS]", "label": "fulfilled"}
{"sequence input": "SGSMTLVSESTVPEKGTTLLTLKFPNGAPATVTLNPDGSSTTTFPATGLPFTVTVGSGTLTVTTPAALALSA [r9_233_JUSTAS]", "label": "not fulfilled"}
{"sequence input": "SADLAKNIAKKLNPDIKDVQIKDIELQPNPDNGYPVIKVELEVKMNDGPYKKSIWFMPNGFQIKIQPVPSAG [r14_397_TrROS]", "label": "not fulfilled"}

Note: attention shifts to another entry.
Check if folding stability dG unfold >= 2 kcal/mol (inclusive). Item: DVVIDIDELKKAIEKAKPGEVLELTVKVKDKATGKEYTVRVTVTVNPDGKTVTVTVVNEETGEVIETITLPS [r1_165_TrROS_Hall]
fulfilled

# credit: the supplement of paper PMC12764529
